Just for reference, the nanobody polyreactivity screen of Harvey et al. (2022) is where these values come from.

- test.protocol: yeast display, Sf9 membrane polyspecificity reagent, FACS + sequencing; frameworks hold sequencing errors
experimental.endpoint: polyreactivity (PSR sort gate)

Illustrative cases are given below, each with its answer.
[
  {
    "polymer.sequence": "QVQLVESGGGLVQSGGTLRLSCAASGSTFYVNAMGWYRLAPGKERELVAAINYSGGNTYYADSVKGRFTFSRDNAKNTVYLQMNTLKQEDTAVYYCAVDLIIKGYPWWIEDDYWGQGTQVTVSS",
    "polyreactivity (PSR sort gate)": "high polyreactivity"
  },
  {
    "polymer.sequence": "QVQLVESGGGFVQAGGSLRLSCAASGSIIKRNAMGWYRQAPGKERELVASISSGGSTKYADSVKGRFTLSRDNAKNTVYLQMNSLKPEDTAVYYCAKRSSQTRRAYDYWGQGTQVTVSS",
    "polyreactivity (PSR sort gate)": "low polyreactivity"
  },
  {
    "polymer.sequence": "QVQLVESGGGLVQAGGSLRLSCAASGSIFRRYALGWYRQAPGKERELVAAISYSGGSTYYADSVKGRFTISRDNAKNTVYLQMNSLKPEDTAVYYCAVVTRKGLYDYWGQGTQVTGSS",
    "polyreactivity (PSR sort gate)": "high polyreactivity"
  },
  {
    "polymer.sequence": "QVQLVESGGGLVQAGGSLRLSCAASGRTFPYYAMGWYRQAPGKERELVAAITRGVRTHYADSVKGRFTISRDNAKYTVYLQMNSLKPEDTAVYYCAREDWGSYSDMDSWGQGTQVTVSS",
    "polyreactivity (PSR sort gate)": "low polyreactivity"
  },
  {
    "polymer.sequence": "QVQLVESGGGLVQAGGSLRLSCAASGSIFEGYAMGWYRQAPGKERELVARITSDDDSTYYADSVKGRFTISRDNAKNTVYLQMNSLKPEDTAVYYCNADYYCTSLAMDSWGQGTQVTVSS",
    "polyreactivity (PSR sort gate)": "low polyreactivity"
  }
]

Req: Fill blank: measured polyreactivity (PSR sort gate) of the sequence `QVQLVESGGGLVQAGGSLRLTCAASGFILKYYAMGWYRHAPGKERHLVAAITVSGGSTYYADSVKGRFTISRDNAKNTVYLQMNSLKPEDTAVYYCNADYPRGGAGLLDYWGQCTQVTVSS` is ____.
Resp: low polyreactivity

Req: Can you look up the measured polyreactivity (PSR sort gate) of `QVQLVESGGGLVQAGGSLRLSCAATGIIFRYAMGWYRQAPGKERELVAAIRKSDGSTYYADSVKGRFTISRDNAKNTVYLQMNSLKPEDTAVYYCATDIVYGNRKGFYYWGQGTQVTVSS` for me?
Resp: high polyreactivity

Req: Item `QVQLVESGGGLVQAGGSLRLSCAASGGIFARNAMGWYRQAPGKVRELVAAISWSGGRTYYADSVKGRFTISRDNAKNTDYLQMNSLKPEDTAVYYSAADHDPWWAWEFDYWGQGTQVTVSS` has what recorded polyreactivity (PSR sort gate)?
Resp: low polyreactivity

Req: What value of polyreactivity (PSR sort gate) has been reported for the following sequence? `QVQLVESGGGLVQAGGSLRLSCAASGNTYDPNAMGWYRQAPGKERELVAAISSDGSTKYADSVKGRFTISRDNAKNTVYLQMNSLKPEDTAVYYCAADHGYWYWYGGDNSWGQGTQVTVSS`
Resp: low polyreactivity

Req: Look up polyreactivity (PSR sort gate) for this sequence: `QVQLVESGGGLVQAGGSLRLSCAASGRIFVVNDMGWYRQAPGKERELVAAMNSGGRTNYADSVKGRFTISRDNAKNTVYLQMPSLKPEDTAVYYCNAKRTGPWFLHVPVYYWGQGTQVTVSS`
Resp: low polyreactivity

Req: For the sequence `QVQLVESGGGLVQAGGSLRLSCAASGFTNLNSMGRYRQAPGKERELVADISASGGTTYYADSVKGRFTISLDNAKNTVYLQMNSLKPEDTAVYYCAARRYYPRWYYWIRFDYWGQGTQVTVSS` , what polyreactivity (PSR sort gate) is on record?
Resp: high polyreactivity

====

- test.protocol: yeast display, Sf9 membrane polyspecificity reagent, FACS + sequencing; frameworks hold sequencing errors
experimental.endpoint: polyreactivity (PSR sort gate)

[
  {
    "polymer.sequence": "QVQLVESGGGLVQAGGSLRLRCAASGITTRTYAMGWYRQAPGKERELVAAISDSGDRTYYADSVKGRFTISRDKAKNTVYFQMNSVKPEDTAVYYCAVDGPGPRCEFWGQGTKVTVSS",
    "experimental.endpoint": "polyreactivity (PSR sort gate)",
    "observed.measurement": "low polyreactivity"
  },
  {
    "polymer.sequence": "QVQLVESGGGLVQAGGSLRLSCGASGRIFRGYTMGWYRQAPGKERELVAAINRSGGNTYYADSVKGRFTISRDNAKNTVYLQLNSLKPEDTAVYYCAAGARGYGWRGDYWGQGTQVTVSS",
    "experimental.endpoint": "polyreactivity (PSR sort gate)",
    "observed.measurement": "low polyreactivity"
  },
  {
    "polymer.sequence": "QVQLVESGGGLVQAGGSLRLSCAASGSIFSRYAMGWYRQAPGKERELVAAINGRGSRTYYADSVKGRFTISRDNAKNTVYLQMNSLKPEDTAVYYCAAGRSRLYGPRYFIYKYNYWGQGTQVTVSS",
    "experimental.endpoint": "polyreactivity (PSR sort gate)",
    "observed.measurement": "high polyreactivity"
  },
  {
    "polymer.sequence": "QVQLVESGGGLVQAVGSLRLSCAPSGSTFFKYARGWYRQAPGKERELVAVITRSGGTTYYADSVKGRFTISRDNAKNTVYLLMNSLKPEDTAVYYCAAGYYQYHRGYPTFTRYDYWGQGTQVTVSS",
    "experimental.endpoint": "polyreactivity (PSR sort gate)",
    "observed.measurement": "high polyreactivity"
  }
]

Req: Given the sequence `QVQLVESGGGLVQAGGSLRLSCAASGNTFWGNAMGWYIQAPGKERELVAAITSGGNTNYADSVKGRFTISRDNAKNTVYLQMNSLKPEDTAVYYCNVDLKAWLPDGGSVDYWGQGTQVTVSS` , what is its reported polyreactivity (PSR sort gate)?
Resp: low polyreactivity

Req: Need polyreactivity (PSR sort gate), item `QVQLVESGGGIVQAGGSLRLSCAASGRIFYGYTMGWYRQAPGKERELVASIDYSTGRTYYADSVKGRFTISRDNAKNTVYLLMNSLKPEDTAVYYCNADPNYSFLRYDYWGQGTQVTVSS`
Resp: high polyreactivity

Req: Form field: reported polyreactivity (PSR sort gate) of `QVQLVESGGGLVQAGGSLLLSCAASGSIFVRNTMGWYRQAPGKERELVAAITSSGGTTYYADSVKGRFTISRDNAKNTVYLQMNSLKPEDTAVYYCAARYGYWGQGTQVTVSS`
Resp: high polyreactivity

Req: Which polyreactivity (PSR sort gate) is listed for `QVQLVESGGCLVQAGGSLRLSCAASGSIFSRYDMGWYRQAPGKEREFVPRITQRGGSTYYADSVKGRFTISRDNAKNTVYLQMNTVKPEDTAVYYCYADHYRRQLAEDYWGQGTQVTVSS` ?
Resp: low polyreactivity

====

- test.protocol: yeast display, Sf9 membrane polyspecificity reagent, FACS + sequencing; frameworks hold sequencing errors
experimental.endpoint: polyreactivity (PSR sort gate)

[
  {
    "polymer.sequence": "QVQLVESGGGIDQAGGSLRLSCAASGSNFYTYAMGWYRQAPGKEREFVAAITRGGARTYYADSVKWRFTISRDNAKNTVYLQMNSLKPEDTAVYYCAKLGKATTQVGSDYWGQGTQVSVSS",
    "experimental.endpoint": "polyreactivity (PSR sort gate)",
    "observed.measurement": "low polyreactivity"
  },
  {
    "polymer.sequence": "QVQLVESGGGLVQAGGSLRLSCAASGIIFWYYAMGWYRQAPGKERELVAAISQSGGRTYYADSVKGRFTISRDNAKNTVYLQMNSLKPEDTAVYYCAAEPYTGYGYWGQGTQVTVSS",
    "experimental.endpoint": "polyreactivity (PSR sort gate)",
    "observed.measurement": "high polyreactivity"
  },
  {
    "polymer.sequence": "QVQLVESGGGLVQAGGSLRLSCPASGRIFRYYPMGWYRQAPGKEREFVAGITWSGGRTYYADSVKGRFTISRDNAKNTVFVQMNSLKPEDTAVYYCNADAGTRVGWWDDYDYWGQGTQVTVSS",
    "experimental.endpoint": "polyreactivity (PSR sort gate)",
    "observed.measurement": "low polyreactivity"
  },
  {
    "polymer.sequence": "QVQLVESGGGLVQAGGSLRLSCAASGSTFRYYAMGWYRQAPGKERELVARISWRGGSTYYADSVKGRFTISRDNAKNTVYLQMNRLKPEDTAVYYCAAVRWVRYRTSAYEYWGQGTLVTVSS",
    "experimental.endpoint": "polyreactivity (PSR sort gate)",
    "observed.measurement": "high polyreactivity"
  },
  {
    "polymer.sequence": "QVQLEESGGGLVQAGGSLRISCAASGSIVRYKAMGWYRQAHGKERELVAAISSRGGSTYYADSVKGRFTISRDNAKNTVYLQMNSLKPEDTAVYYCNVRWTYKYDYWGQGTQVTVSS",
    "experimental.endpoint": "polyreactivity (PSR sort gate)",
    "observed.measurement": "high polyreactivity"
  },
  {
    "polymer.sequence": "QVQLVESGGGLVQAGGSLRLSCAASGSTFYRYAMGWYRQAPGKERELVAAINTGGSTNYADSVKGRFTISRDNAKNTVYLQMNSLKPEDTAVYYCAARFQYYRKYDYWGQGTQGTVSS",
    "experimental.endpoint": "polyreactivity (PSR sort gate)",
    "observed.measurement": "low polyreactivity"
  },
  {
    "polymer.sequence": "QVQLVESGGGLVQAGGSLRLSCAASGYIFKWYAMGWYIQAPGKERELVAAITWSGDTTYYADSVKGRFTISRDNAQNTVYLQMNSLKPVDTAVYYCAVERDDQDYVYWGQGTQVTVSS",
    "experimental.endpoint": "polyreactivity (PSR sort gate)",
    "observed.measurement": "low polyreactivity"
  },
  {
    "polymer.sequence": "QVQLVESGGGLVQAGGSLRLSCAASGGTFSYNAMGWYRQAPGKERELVAAISSRGGSTYYSDSVKGRFTISRDNAKNTDYLQMNSLKPEDTAVYYCNAVRGVWYGSWGQGTQVTVSS",
    "experimental.endpoint": "polyreactivity (PSR sort gate)",
    "observed.measurement": "high polyreactivity"
  },
  {
    "polymer.sequence": "QVQLVESGGGLVQAGGSLRLSCAASGSTFVGYAMGWYRQAPGKERELVAAISKSGGRTYYADSVKGRFTISRDNAKNTVYLQMNSLKPEDTAVYYCAAYFTRYDFRWHTYYYWGQGTQVTVSS",
    "experimental.endpoint": "polyreactivity (PSR sort gate)",
    "observed.measurement": "low polyreactivity"
  },
  {
    "polymer.sequence": "QVQLVESGVGLVQAGGSLRLSCAASGSIFGPYAMGWSRQAPGKERELVAAISLGGGSTYYAASVKGRFTISRDNAKNTVYLQMNSVKPEDTAVYYCNAEFSSGPYGYNGFDYWGQGTQVTVSS",
    "experimental.endpoint": "polyreactivity (PSR sort gate)",
    "observed.measurement": "low polyreactivity"
  }
]

Continue with the sequence presented below.
Req: Suppose we examine the sequence `QVQLVESGGGLVQAGGSLRLSCAASGYTFGSNTMGWYRQAPGKERELVAVITWSGGSTYYADSVKGRFTISRDNAKNTVYLQMNSLKPEDTAVYYCAADATSPLTWFDYWGQGTQVTVSS` ; what polyreactivity (PSR sort gate) value has been reported?
Resp: low polyreactivity
